Test system: HCC-2998 colon
PROTOCOL_SUMMARY: NCI tumour cell line growth inhibition, 48 h
Overview of recorded TGI for various compounds
ASSAY_ENDPOINT: TGI

>  <COMPOUND>
COc1ccc(N(CC(=O)NCCC[Te]c2ccccc2)C(=O)CCSC2=C(C)C(=O)c3ccccc3C2=O)cc1

>  <RESULT>
4.44 µM

$$$$
>  <COMPOUND>
CSC(=NCCCCN=C(NS(=O)(=O)c1ccc(Cl)cc1)SC)NS(=O)(=O)c1ccc(Cl)cc1

>  <RESULT>
> 100 µM

$$$$
>  <COMPOUND>
NCCNc1nc(N2CCCC2)c2nc(Cl)c(NCc3ccccc3)nc2n1

>  <RESULT>
2.88 µM

$$$$
>  <COMPOUND>
Cn1c(=O)c2c(no[n+]2[O-])n(C)c1=O

>  <RESULT>
> 100 µM

$$$$
>  <COMPOUND>
NC1CC(=O)c2c(Cl)sc(Cl)c21 (stereo unspecified)

>  <RESULT>
22.7 µM

$$$$
>  <COMPOUND>
Cc1ccccc1NC(=O)C(=O)C(c1cnc2ccc([N+](=O)[O-])cc2n1)[N+](=O)[O-] (stereo unspecified)

>  <RESULT>
> 100 µM

$$$$
>  <COMPOUND>
COc1[nH]c(C(Cl)(Cl)Cl)c(Cl)c(=O)c1Cl

>  <RESULT>
> 100 µM

$$$$
>  <COMPOUND>
O=S(=O)(/N=C(\NO)Nc1ccc(Cl)cc1)c1ccc(S(=O)(=O)c2ccccc2)s1

>  <RESULT>
29.7 µM

$$$$
>  <COMPOUND>
O=c1c2ccccc2nc(-c2ccc(Br)cc2)n1NC1OC(CO)C(O)C(O)C1O (stereo unspecified)

>  <RESULT>
> 100 µM

$$$$
>  <COMPOUND>
CC(=O)Nc1ccc(C(=O)NN2C(=O)C(Cl)C2c2cc(Br)ccc2O)cc1 (stereo unspecified)

>  <RESULT>
> 100 µM

$$$$
>  <COMPOUND>
COc1ccc2c(c1)CCc1c(-c3noc4c3CCc3cc(OC)ccc3-4)noc1-2

>  <RESULT>
> 100 µM

$$$$
>  <COMPOUND>
CCOc1ccccc1N=Nc1c(-c2ccccc2)nn(C(=O)CC(=O)Nc2cccc(Cl)c2)c1-c1ccccc1

>  <RESULT>
> 100 µM

$$$$
>  <COMPOUND>
O=C(/C=C\c1cccc2ccccc12)c1cccs1

>  <RESULT>
30 µM

$$$$
>  <COMPOUND>
NS(=O)(=O)c1ccc(NNc2c3ccccc3nc3ccccc23)cc1

>  <RESULT>
17.6 µM

$$$$
>  <COMPOUND>
O=C(NCc1ccccc1)c1cc2cc(O)c(O)cc2cn1

>  <RESULT>
> 100 µM

$$$$
>  <COMPOUND>
C=C1C(=O)O[C@H]2[C@H]1CC/C(Cn1cc(Cn3ccc4ccccc43)nn1)=C\CC[C@@]1(C)O[C@@H]21

>  <RESULT>
3.66 µM

$$$$
>  <COMPOUND>
CN(C)C(=O)/N=c1\ss/c(=N\C(=S)N(C)C)n1-c1ccccc1

>  <RESULT>
> 100 µM

$$$$
>  <COMPOUND>
Cc1cc(O)c(C(C)C)cc1CN1CCCCC1

>  <RESULT>
> 100 µM

$$$$
>  <COMPOUND>
CCOC(=O)/C(=C/c1ccc([N+](=O)[O-])cc1)C(=O)c1ccccc1

>  <RESULT>
3.43 µM

$$$$
>  <COMPOUND>
CC(C)NCC(O)COC(=O)c1cccs1 (stereo unspecified)

>  <RESULT>
> 100 µM

$$$$
>  <COMPOUND>
COc1ccc(-c2c(C#N)c(-c3ccc(C)cc3)n(NS(=O)(=O)c3ccccc3)c(=O)c2C#N)cc1

>  <RESULT>
> 100 µM

$$$$
>  <COMPOUND>
Cc1ccc(OCC2OC(C#N)C(Oc3ccc(C)cc3)C2Oc2ccc(C)cc2)cc1 (stereo unspecified)

>  <RESULT>
> 100 µM

$$$$
>  <COMPOUND>
COc1ccc(-c2cc(=O)c3c(OC)c(OC)c(OC)c(OC)c3o2)cc1OC

>  <RESULT>
> 100 µM

$$$$
>  <COMPOUND>
O=C(O)C1NCCc2c1[nH]c1ccccc21 (stereo unspecified)

>  <RESULT>
> 100 µM

$$$$
>  <COMPOUND>
O=C1c2ccccc2-c2nc3ccc(O)cc3n21

>  <RESULT>
> 100 µM

$$$$
>  <COMPOUND>
COC(=O)C1(C(=O)OC)CC2c3c(c4ccccc4n3C)CC(C1=O)N2Cc1ccccc1 (stereo unspecified)

>  <RESULT>
> 100 µM

$$$$
>  <COMPOUND>
O=S(=O)(N=S(c1ccc(Cl)cc1)c1ccc(Cl)cc1)c1ccccc1

>  <RESULT>
> 100 µM

$$$$
>  <COMPOUND>
CCOC(=O)/C(=C\NCC(OCC)OCC)c1nc2ccccc2[nH]1

>  <RESULT>
51.3 µM

$$$$
>  <COMPOUND>
C/C=C/C=N/N(C(=O)c1cc([N+](=O)[O-])cc([N+](=O)[O-])c1)C1=NC(c2ccccc2)C(c2ccccc2)=NN1 (stereo unspecified)

>  <RESULT>
> 100 µM

$$$$
>  <COMPOUND>
COC(=O)[C@@H]1C[C@H]([Se]c2ccccc2)CN1S(=O)(=O)c1ccc(C)cc1

>  <RESULT>
> 100 µM

$$$$
>  <COMPOUND>
C/C(=N\NC(=O)c1cccnc1)c1cccc(/C(C)=N/NC(=O)c2cccnc2)n1

>  <RESULT>
> 100 µM

$$$$
>  <COMPOUND>
CC(=O)N(C)c1ccc2c(ccc[n+]2[O-])c1[N+](=O)[O-]

>  <RESULT>
> 100 µM

$$$$
>  <COMPOUND>
CN(c1ccccc1)S(=O)(=O)c1ccccc1[N+](=O)[O-]

>  <RESULT>
> 100 µM

$$$$
>  <COMPOUND>
CN1CCC[C@@H]1CCO[C@](C)(c1ccccc1)c1ccc(Cl)cc1

>  <RESULT>
13.7 µM

$$$$
>  <COMPOUND>
COc1cc(/C=C2\[C@H]3c4c(c(OC)c(C)c(OC)c4OC)C[C@@H](C(=O)N2Cc2ccccc2)N3C(=O)OC(C)C)c(OC)c(C)c1OC

>  <RESULT>
> 100 µM

$$$$
>  <COMPOUND>
C[C@]12CC[C@@H]3c4ccccc4CC[C@H]3[C@@H]1CC[C@@H]2O

>  <RESULT>
> 100 µM

$$$$
>  <COMPOUND>
COC(=O)C1C(C)N1C (stereo unspecified)

>  <RESULT>
> 100 µM

$$$$
>  <COMPOUND>
NCC#CCNCCCN1CC1

>  <RESULT>
> 100 µM

$$$$
>  <COMPOUND>
O=C(O)C(Cc1c[nH]c2ccccc12)N=Cc1nc(-c2ccccc2)oc1O (stereo unspecified)

>  <RESULT>
> 100 µM

$$$$
>  <COMPOUND>
COc1ccc(/C=C(\C#N)c2nc(N)nc(N3N=C(C)CC3(C)C)n2)c(O)c1

>  <RESULT>
38.2 µM

$$$$
>  <COMPOUND>
COc1ccc(/C=C2\CN(Cc3cn(CCCNc4ccnc5cc(Cl)ccc45)nn3)C/C(=C\c3ccc(OC)c(OC)c3)C2=O)cc1OC

>  <RESULT>
2.9 µM

$$$$
